Consider the following molecules and their measured inhibition of growth at 30 µM readings.
experiment: Cytotoxicity against human MIAPaCa2 cells assessed as cell growth inhibition at 30 uM after 48 hrs by MTT assay; type: functional; conditions: MIA PaCa-2, 48 h, read-out: GI

Here's what some known entries look like.
COc1cc(/C=C/C(=O)c2ccc(OCCO[C@H]3O[C@@H]4O[C@@]5(C)CC[C@H]6[C@H](C)CC[C@@H]([C@H]3C)[C@@]46OO5)cc2)cc(OC)c1OCCO[C@H]1O[C@@H]2O[C@@]3(C)CC[C@H]4[C@H](C)CC[C@@H]([C@H]1C)[C@@]24OO3 ... 37.4 to 40.1%
C[C@H]1[C@@H](OCCOc2cccc(C(=O)/C=C/c3ccc(O)cc3)c2)O[C@@H]2O[C@@]3(C)CC[C@H]4[C@H](C)CC[C@@H]1[C@@]24OO3 ... 37.8 to 77.4%

Let's switch to this molecule now.
## Input Quick check: inhibition of growth at 30 µM of C[C@H]1[C@@H](OCCOc2ccc(/C=C/C(=O)c3ccc(O)cc3)cc2)O[C@@H]2O[C@@]3(C)CC[C@H]4[C@H](C)CC[C@@H]1[C@@]24OO3 ?
## Output 68.3 to 86.8%

###

experiment: Cytotoxicity against human PC3 cells assessed as cell growth inhibition at 30 uM after 48 hrs by MTT assay; format: functional; settings: PC-3, 48 h, read-out: GI
Consider the following compounds and their measured inhibition of growth at 30 µM readings.
Kindly answer with a numeric value in %, unit omitted.

## Input Quick check: inhibition of growth at 30 µM of C[C@@H]1CC[C@H]2[C@@H](C)C(=O)O[C@@H]3O[C@@]4(C)CC[C@@H]1[C@]32OO4 ?
## Output 16

## Input Would you mind doing C[C@H]1[C@@H](OCCOc2ccc(/C=C/C(=O)c3ccccc3Cl)cc2)O[C@@H]2O[C@@]3(C)CC[C@H]4[C@H](C)CC[C@@H]1[C@@]24OO3 as well?
## Output 52.4

###

experiment: Cytotoxicity against human HepG2 cells assessed as cell growth inhibition at 30 uM after 48 hrs by MTT assay; format: functional; details: HepG2, 48 h, read-out: GI
REPORTED ENDPOINT: inhibition of growth at 30 µM

C[C@H]1[C@@H](OCCOc2cccc(C(=O)/C=C/c3ccc(O)cc3)c2)O[C@@H]2O[C@@]3(C)CC[C@H]4[C@H](C)CC[C@@H]1[C@@]24OO3 ... 37.8 to 77.4%
C[C@H]1[C@@H](OCCOc2ccc(/C=C/C(=O)c3ccc(O)cc3)cc2)O[C@@H]2O[C@@]3(C)CC[C@H]4[C@H](C)CC[C@@H]1[C@@]24OO3 ... 68.3 to 86.8%
C[C@H]1[C@@H](OCCOc2ccc(/C=C/C(=O)c3ccco3)cc2)O[C@@H]2O[C@@]3(C)CC[C@H]4[C@H](C)CC[C@@H]1[C@@]24OO3 ... 25.2 to 67.3%
C[C@H]1[C@@H](OCCOc2ccc(-c3cc(=O)c4ccc(OCCO[C@H]5O[C@H]6O[C@@]7(C)CC[C@H]8[C@H](C)CC[C@@H]([C@H]5C)[C@@]68OO7)cc4o3)cc2)O[C@H]2O[C@@]3(C)CC[C@H]4[C@H](C)CC[C@@H]1[C@@]24OO3 ... 30.1 to 87.4%

## Input Quick check: inhibition of growth at 30 µM of C[C@H]1[C@@H](OCCOc2ccc(/C=C/C(=O)c3cc4ccccc4o3)cc2)O[C@@H]2O[C@@]3(C)CC[C@H]4[C@H](C)CC[C@@H]1[C@@]24OO3 ?
## Output 29.9%

###

assay: Cytotoxicity against human PC3 cells assessed as cell growth inhibition at 30 uM after 48 hrs by MTT assay; assay type: functional; settings: PC-3, 48 h, read-out: GI
Consider the following compounds and their measured inhibition of growth at 30 µM readings.
Kindly answer with a numeric value in %, unit omitted.

Here's what some known entries look like.
COc1ccc(C(=O)/C=C/c2ccc(OCCO[C@H]3O[C@@H]4O[C@@]5(C)CC[C@H]6[C@H](C)CC[C@@H]([C@H]3C)[C@@]46OO5)cc2)cc1Cl ... 40.3
C[C@H]1[C@@H](OCCOc2ccc(/C=C/C(=O)c3ccc(O)cc3)cc2)O[C@@H]2O[C@@]3(C)CC[C@H]4[C@H](C)CC[C@@H]1[C@@]24OO3 ... 88.6
COc1cc(/C=C/C(=O)c2ccc(OCCO[C@H]3O[C@@H]4O[C@@]5(C)CC[C@H]6[C@H](C)CC[C@@H]([C@H]3C)[C@@]46OO5)cc2)cc(OC)c1OCCO[C@H]1O[C@@H]2O[C@@]3(C)CC[C@H]4[C@H](C)CC[C@@H]([C@H]1C)[C@@]24OO3 ... 57.6

## Input Quick check: inhibition of growth at 30 µM of C[C@H]1[C@@H](OCCOc2ccc(/C=C/C(=O)c3ccc(Cl)s3)cc2)O[C@@H]2O[C@@]3(C)CC[C@H]4[C@H](C)CC[C@@H]1[C@@]24OO3 ?
## Output 37.4

## Input Would you mind doing Cc1cc(C(=O)/C=C/c2ccc(OCCO[C@H]3O[C@@H]4O[C@@]5(C)CC[C@H]6[C@H](C)CC[C@@H]([C@H]3C)[C@@]46OO5)cc2)ccc1OCCO[C@H]1O[C@@H]2O[C@@]3(C)CC[C@H]4[C@H](C)CC[C@@H]([C@H]1C)[C@@]24OO3 as well?
## Output 6.4

## Input Would you mind doing C[C@H]1[C@@H](OCCOc2ccc(/C=C/C(=O)c3cccc(O)c3)cc2)O[C@@H]2O[C@@]3(C)CC[C@H]4[C@H](C)CC[C@@H]1[C@@]24OO3 as well?
## Output 47.6

## Input Would you mind doing C[C@H]1[C@@H](OCCOc2ccc(C(=O)/C=C/c3c[nH]c4ccccc34)cc2)O[C@@H]2O[C@@]3(C)CC[C@H]4[C@H](C)CC[C@@H]1[C@@]24OO3 as well?
## Output 38.6

## Input Would you mind doing C[C@H]1[C@@H](OCCOc2ccc(/C=C/C(=O)c3cc4ccccc4o3)cc2)O[C@@H]2O[C@@]3(C)CC[C@H]4[C@H](C)CC[C@@H]1[C@@]24OO3 as well?
## Output 42.5

## Input Would you mind doing COc1ccc(/C=C/C(=O)c2ccc(OCCO[C@H]3O[C@@H]4O[C@@]5(C)CC[C@H]6[C@H](C)CC[C@@H]([C@H]3C)[C@@]46OO5)cc2)c(OC)c1OC as well?
## Output 53.3

## Input Would you mind doing CCOc1cc(/C=C/C(=O)c2ccc(OCCO[C@H]3O[C@@H]4O[C@@]5(C)CC[C@H]6[C@H](C)CC[C@@H]([C@H]3C)[C@@]46OO5)cc2)ccc1O as well?
## Output 55.1

## Input Would you mind doing COc1ccc(C(=O)/C=C/c2ccc(OCCO[C@H]3O[C@@H]4O[C@@]5(C)CC[C@H]6[C@H](C)CC[C@@H]([C@H]3C)[C@@]46OO5)cc2)c(OC)c1 as well?
## Output 47.4

## Input Would you mind doing C[C@H]1[C@@H](OCCOc2cccc(C(=O)/C=C/c3ccc(O)cc3)c2)O[C@@H]2O[C@@]3(C)CC[C@H]4[C@H](C)CC[C@@H]1[C@@]24OO3 as well?
## Output 83.5
